Hello, the source for this data is the Human Domainome abundance scans (Beltran et al. 2025), in case you need it.

For each entry below, report its abundance fitness value.
B1: POU domain, class 3, transcription factor 2, residues 262 to 338; numbered along this chain, P20265 (parent)
chain: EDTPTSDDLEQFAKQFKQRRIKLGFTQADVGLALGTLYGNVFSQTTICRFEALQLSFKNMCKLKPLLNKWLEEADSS

- Variants of: B1
- assayExplanation: abundance fitness (aPCA) (normalised: wild type 0, dead -1); higher = more abundant; growth selection in yeast, the domain comes from the species named
- experimentalParameters: Homo sapiens

Could you tell me abundance fitness for each of these variants? They are listed below.
1. W70I
2. Y38A
3. L23S

[-0.64, -0.069, -0.345]

Could you tell me abundance fitness for each of these variants? They are listed below.
1. I47A
2. Q44L
3. R20M
4. F50L

[-0.751, -0.248, -1.29, -0.487]

Could you tell me abundance fitness for each of these variants? They are listed below.
1. K69M
2. S43Q
3. R19H
4. D29A
5. R19V
6. F57T
7. R20V

1: 0.112; 2: -0.166; 3: -0.047; 4: -0.205; 5: -0.194; 6: 0.01; 7: -0.728
